biological target: DLG2_3, Q15700; test: holdup assay; parameters: key: below the threshold = too weak to quantify, mostly under pKd 3.1 to 4; conditions: plain residues with an end cap or a label only (N-terminal biotin on a linker: ado-ado)

| binder | pKd |
| --- | --- |
| APIAGFSSFV [SDK2, Q58EX2] | below the threshold |
| ARSAAASNYV [CLDN4, O14493] | below the threshold |
| LAHVKHKEQI [AQP3, Q92482] | below the threshold |
| KKMLQRRTLL [OR8G1, Q15617] | below the threshold |

Origin of measurements: paper PMC9482650
